# Tested on: Wolbachia pipientis
# TEST DETAILS: Anti-Wolbachia Cell-Based Screen
# Format: functional
# Parameters: scale not given: in the data most compounds retested in dose-response had high values
# EXPERIMENTAL SETUP: 5 µM
The campaign covered roughly 48,000 compounds. About 13,000 (27%) showed an effect of 50% or more. The list shows a part of the results.
As shown below, each of these molecules has a reported Percent Effect value.
# value in %; strip the unit string

Example entries begin here.
MOLECULE	QUANTITATIVE RESULT
CN1CCn2c(-c3cnn(C)c3)cnc2C12CCN(CC1CC1)CC2.O=C(O)C(F)(F)F.O=C(O)C(F)(F)F.O=C(O)C(F)(F)F	-10.48
Cc1cccnc1CN1CCOC(Cc2cccc3ccccc23)C1 (stereo unspecified)	-2.143
COCCOCCCC(=O)N1CCC(Cc2ccccc2OC)CC1	-18.09
O=C(Cc1ccc2c(c1)OCO2)N1CCN(c2cnccn2)CC1	-5.983
CCn1ccnc1C1CCN(Cc2c(F)cccc2F)CC1	1.845

Kindly note the recorded Percent Effect for Cc1ccc(N2CCO[C@H]3CN(Cc4cc(C)on4)CC[C@H]3C2=O)cn1.O=C(O)C(F)(F)F.O=C(O)C(F)(F)F , which is -4.354

Lab note: Cc1nnc(NCc2ccccc2Cl)c(C#N)c1C gave Percent Effect of 4.284

// field: Percent Effect; key: O=C(CCOc1cccc(Cl)c1)N1CCN(c2cnccn2)CC1 ; value = 103.8

What the record says about CN(C)CC1CN(Cc2c(Cl)ccc3cccnc23)CCO1 (stereo unspecified) : Percent Effect is -12.27

Reported Percent Effect for CN(C)CC1CN(Cc2cc(Cl)cc3cccnc23)CCO1 (stereo unspecified) was -1.777

GET /value?item= Cc1ccccc1CN1CCOC(c2nccc(CN(C)C)n2)C1 (stereo unspecified) &field=Percent Effect returns 127.2

* * *

Listed here: items and their measured Percent Effect.
# System: Wolbachia pipientis
# TEST DETAILS: Anti-Wolbachia Cell-Based Screen
# Type: functional
# Design: scale not given: in the data most compounds retested in dose-response had high values
# EXPERIMENTAL SETUP: 5 µM
About 13,000 (27%) of roughly 48,000 compounds showed an effect of 50% or more. This is one part of the list.
Expressed in %, but write only the number.

MOLECULE	QUANTITATIVE RESULT
O=C(Cc1ccsc1)NCC1Cn2nnc(-c3ccoc3)c2CO1 (configuration not stated)	-0.8336

get_value(item= CC(C)(C)CN1CC(O)CN(C(=O)c2cccc(C(F)(F)F)c2)CC1=O (configuration not stated) , readout=Percent Effect) returns 85.94

Note to self: Percent Effect recorded for CS(=O)(=O)N1CC[C@H]2O[C@H](C(=O)NCCc3ccccn3)CC[C@H]21.O=C(O)C(F)(F)F was 2.249

Reported Percent Effect for CSC(C)CCN1CCCn2nc(CNC(=O)C3CCC3)cc2C1 (configuration not stated) was -26.67

The recorded Percent Effect for COCCCN(C)C(=O)c1cccc(Nc2cnccn2)c1 is 100

The reported value for CC1(C(=O)N2CCOCC2)CN(Cc2ccccn2)CCO1 (configuration not stated) in terms of Percent Effect is -10.18

// O=C(NCCc1ccccn1)[C@@H]1CC[C@@H]2[C@@H](CCN2Cc2ccoc2)O1.O=C(O)C(F)(F)F.O=C(O)C(F)(F)F : Percent Effect value = 100.1

The measured Percent Effect associated with CN(C)CCOCc1cncc2c1CCN(C(=O)C1CCOCC1)C2.O=C(O)C(F)(F)F.O=C(O)C(F)(F)F reads 112.9

The recorded Percent Effect for entry CC(=O)c1cccc(OCCCC(=O)N(C)CCc2ccncc2)c1 equals 5.185

For reference, reported Percent Effect for Cn1ccnc1CN(CCO)Cc1ccc(C(F)(F)F)cc1 stands at -12.47

Record CN1CCN(Cc2c[nH]cn2)CC12CCC(=O)N(CC1CC1)CC2 (configuration not stated) , field Percent Effect: -17.33

Sourced from ChEMBL document CHEMBL3988442
